Data origin: ChEMBL document CHEMBL1201862

System: UACC-62
Test: NCI tumour cell line growth inhibition, 48 h
Calls of active or inactive are those of the source. No stated cut-off is given here; in the data, active = GI50 up to about 1.1 µM and inactive = higher.
OBSERVED_PROPERTY: GI50

COMPOUND	GI50
Cc1ccccc1-n1c2nc(=O)n(C)c(=O)c-2nc2ccccc21	3.48 µM (inactive)

Batch: GI50 for all items listed.
1. CNC(=O)CCC(NC(=O)OC(C)(C)C)C(=O)NC(Cc1ccc(NC(=O)CCCCC(C)=O)cc1)C(=O)NCC(=O)NC (stereo not drawn)
2. COC1CC(OC2CCC3(C)C(=CCC4C3C(OC(C)=O)C(OC(=O)CC(C)C)C3(C)C(C(C)=O)CCC43O)C2)OC(C)C1OC1CC(OC)C(OC2CC(OC)C(OC3OC(C)C(OC4OC(CO)C(O)C(O)C4O)C(OC)C3O)C(C)O2)C(C)O1 (stereo not drawn)

OUT:
["> 100 µM (inactive)", "> 75 µM (inactive)"]

====

Test system: Hs-578T
Assay: NCI tumour cell line growth inhibition, 48 h
Active and inactive are the calls of the source. No stated cut-off is given here; in the data, active = GI50 up to about 1.1 µM and inactive = higher.
Kindly state GI50 for each of the entries shown.

Guide cases for GI50, answers given:
COMPOUND	OBSERVED_PROPERTY	READING
Cc1cc2nc3ccccc3n2c2nc(N)ccc12	GI50	35.3 µM (inactive)
COc1cccc(/C=N/n2c(Cc3ccccc3)n[nH]c2=O)c1	GI50	26.7 µM (inactive)
Cc1c(N(C)C)ccc2c(=O)c3cccc(CC(=O)O)c3oc12	GI50	> 100 µM (inactive)
CC(=O)NNc1nc(C)c(C(/C=C/c2ccc3c(c2)OCO3)=N/Nc2ccccc2)s1	GI50	> 100 µM (inactive)
CC(C)OP(=O)(OC(C)C)C(C(C)C)N(C)/C(N)=N/C#N (stereo not given)	GI50	> 100 µM (inactive)

Batch: GI50 for all items listed.
1. C/C(=N\NC(=S)N1CC2CCC(CC2)C1)c1cccc(C)n1
2. O=C(O)CSc1nc2ccccc2[nH]1
3. CCC1(CC)C(=O)OC(=O)C1(CC)CC
4. C1CCNCC1.Oc1ncnc2[nH]cc(CN3CCCCC3)c12

OUT:
1: 4.11 µM (inactive); 2: > 100 µM (inactive); 3: 15.2 µM (inactive); 4: > 100 µM (inactive)

Batch: GI50 for all items listed.
1. CC1(C)[C@@H](Cn2cnc3c(N)ncnc32)CC[C@@]1(C)CO
2. Cc1nc(Nc2ccc(Cl)cc2Cl)sc1C(=O)Nc1ccccc1
3. COC(=O)C1=C(OC(=O)/C=C/c2ccc(Cl)cc2)C(C(=O)OC)[C@]2(O)[C@@H](C(=O)OC)[C@H]1C[C@@H](c1ccccc1)[C@@H]2C(=O)OC (stereo not given in full)

OUT:
1. > 100 µM (inactive)
2. 47 µM (inactive)
3. 7.71 µM (inactive)

Batch: GI50 for all items listed.
1. O=S(=O)(N/C(=N\O)Nc1ccc(Cl)cc1)c1cc2ccccc2o1
2. CSc1nc2cc(S(=O)(=O)N3CCCCC3)ccc2s1
3. CC(=O)C(C(C)=O)=C1CCCC(O)O1 (stereo not given)
4. N=C1/C(=C/c2ccc(F)cc2)C(=O)N=C2SC=NN12
5. O/N=C1\Nc2ccccc2OCc2cc(Br)c(Br)cc2COc2ccccc2N\C1=N/O
6. O=c1[nH]nc(-c2ccccc2)n1/N=C/c1cccs1
7. C=C1C(=O)OC2C1C(OC(=O)/C(C)=C/C)CC(O)(CCl)C1C(OC(C)=O)C=C(C)C21O (stereo not given)

OUT:
1. 20.4 µM (inactive)
2. > 100 µM (inactive)
3. 47.4 µM (inactive)
4. > 100 µM (inactive)
5. 31.7 µM (inactive)
6. 56 µM (inactive)
7. 61.9 µM (inactive)

IN: Tell me GI50 reported for "Cc1ccc(/C(=C\C(=O)C(=O)NC23CC4CC(CC(C4)C2)C3)Sc2ccccc2)cc1"
OUT: > 10 µM (inactive)
